system tested: Gamma-secretase (Homo sapiens) (UniProt Q96BI3+Q9NZ42+Q8WW43+P49768+Q92542+P49810)
test details: Inhibition of human gamma-secretase assessed as inhibition of amyloid beta 40 production using recombinant APP C100FLAG as substrate at 100 uM after 4 hrs by ELISA relative to control
Assay type: protein-complex assay
In this section we review reported inhibition values for a set of compounds.
Record the value in %, omitting the unit from your answer.

Example cases with answers are listed next.
COc1ccc(Nc2ncc3cc(-c4c(Cl)cccc4Cl)c(=O)n(C)c3n2)cc1 = 47
CC(C)N(Cc1ccc(Cl)c(Cl)c1)c1ncc2cc(-c3c(Cl)cccc3Cl)c(=O)n(C)c2n1 = 50
CC(C)N(Cc1ccccc1)c1ncc2cc(-c3c(Cl)cccc3Cl)c(=O)n(C)c2n1 = 90

# ---- query compound ----
Inquiry: Query (compound): CCCCCCNc1ncc2cc(-c3c(Cl)cccc3Cl)c(=O)n(C)c2n1 ; field requested: inhibition
Reply text: 53

###

system tested: Gamma-secretase (Homo sapiens) (UniProt Q96BI3+Q9NZ42+Q8WW43+P49768+Q92542+P49810)
test details: Inhibition of human gamma-secretase assessed as inhibition of amyloid beta 40 production using recombinant APP C100FLAG as substrate at 100 uM after 4 hrs by ELISA relative to control
Type: protein-complex assay
observable: inhibition (%)
Record the value in %, omitting the unit from your answer.

Cn1c(=O)c(-c2c(Cl)cccc2Cl)cc2cnc(NCc3ccccn3)nc21 = 59
Cn1c(=O)c(-c2c(Cl)cccc2Cl)cc2cnc(N3CCN(Oc4cccnc4)CC3)nc21 = 0
Cn1c(=O)c(-c2c(Cl)cccc2Cl)cc2cnc(N3CCN(c4ccc(F)cc4)CC3)nc21 = 68
CSc1ccc(Nc2ncc3cc(-c4c(Cl)cccc4Cl)c(=O)n(C)c3n2)cc1 = 47
Cn1c(=O)c(-c2c(Cl)cccc2Cl)cc2cnc(NCc3ccccc3)nc21 = 0

Inquiry: Query (compound): Cn1c(=O)c(-c2c(Cl)cccc2Cl)cc2cnc(N3CCN(c4ccccn4)CC3)nc21 ; field requested: inhibition
Reply text: 0

Inquiry: What about this compound? Cn1c(=O)c(-c2ccc(Cl)cc2)cc2cnc(N3CCN(c4ccc(F)cc4)CC3)nc21
Reply text: 0

Inquiry: What about this compound? CSc1cccc(Nc2ncc3cc(-c4c(Cl)cccc4Cl)c(=O)n(C)c3n2)c1
Reply text: 0
